Test system: SN12C renal
test-name: NCI-60 one-dose screen, 48 h (100 = growth as untreated, 0 = no growth, -100 = all killed)
condition-label: 10 µM
This is part of a sample that, as a whole, favours compounds with a hit. Of some 83,000 tested, about 20% had one in any assay.
Classify: MET when growth is strictly less than 60%; NOT MET when growth is not.

>  <compound>
COc1ccccc1NC1=C(N2CCCCC2)C(=O)c2ccccc2C1=O

>  <assigned-category>
NOT MET

$$$$
>  <compound>
COc1cc(-c2nc3ccccc3[nH]2)ccc1OCC(=O)N=Nc1c(O)[nH]c2ccccc12

>  <assigned-category>
NOT MET

$$$$
>  <compound>
O=[N+]([O-])c1ccc(S(=O)(=O)OCCCCOS(=O)(=O)c2ccc([N+](=O)[O-])cc2)cc1

>  <assigned-category>
NOT MET

$$$$
>  <compound>
Cc1cc(Cl)ccc1Nc1nc(C(F)(F)F)ccc1C(=O)N/N=C/c1ccccc1Cl

>  <assigned-category>
MET

$$$$
>  <compound>
Nc1ccc2c(c1)Cc1cc(N)c(Cl)cc1-2

>  <assigned-category>
NOT MET

$$$$

Query block: Strictly below 60%: is that where growth of COc1cc2ccnc(C=O)c2cc1OC sits?
Result block: NOT MET

Query block: For this compound, is growth lower than 60%? O=C(Nc1cccc(C(F)(F)F)c1)C(Cl)Cl
Result block: NOT MET

Query block: Dear colleague, could you confirm whether growth of O=NN(CCCl)C(=O)Nc1ccc(NC(=O)N(CCCl)N=O)cc1 falls below 60%? Thanks.
Result block: NOT MET

Query block: Threshold test, growth < 60%: COc1cc(Cl)cc(-c2nn(-c3cccc(NC(=O)Nc4cccc(C(F)(F)F)c4)c3)cc2-c2ccncc2)c1
Result block: MET

Query block: Given COc1cc(C)c2sc3ccccc3c(=O)c2c1NCCN(C)C , is recorded growth strictly lower than 60%?
Result block: MET

Query block: Is the reported growth for COc1ccc(-c2[nH]ncc2/C=C/c2cc(C(F)(F)F)[nH]c(=O)n2)cc1 strictly below 60%?
Result block: NOT MET

* * *

Test system: RXF 393 renal
test-name: NCI-60 one-dose screen, 48 h (100 = growth as untreated, 0 = no growth, -100 = all killed)
condition-label: 10 µM
About 83,000 compounds went through this panel and 20% of them were active in at least one assay; those are over-represented in the sample as a whole. Calls of active or inactive are those of the source. How the source made its calls: active means growth percent below 10; inactive means the rest.
Recorded growth, one value per entry.

In the examples that follow, each entry is paired with its recorded growth.
>  <compound>
CCC(CCNc1cc(OC)cc2cccnc12)CN1C(=O)c2ccccc2C1=O (stereo unspecified)

>  <growth>
117% (inactive)

$$$$
>  <compound>
COc1cccc(C2(C)Nc3ccccc3-c3nc4ccccc4n32)c1 (stereo unspecified)

>  <growth>
111% (inactive)

$$$$
>  <compound>
O=S(=O)(NCl)c1ccccc1

>  <growth>
109% (inactive)

$$$$
>  <compound>
C=CCc1cc(Nc2c3ccc(Cl)cc3nc3ccc(OC)cc23)cc(CN(CC)CC)c1O

>  <growth>
32.1% (inactive)

$$$$
>  <compound>
C=CCNCCCN1C(=O)c2ccc3c4c(ccc(c24)C1=O)C(=O)N(CCCNCC=C)C3=O

>  <growth>
-94.1% (active)

$$$$
>  <compound>
C=CCN1C(=O)/C(=C\c2ccc3c(c2)CCC3)SC1=S

>  <growth>
101% (inactive)

$$$$
>  <compound>
CC(C)=C1CCC(C)C/C1=N\N=C(N)N (stereo unspecified)

>  <growth>
107% (inactive)

$$$$
>  <compound>
CCC(O)c1ccc(Br)cc1NC(=O)c1cccc(Cl)c1 (stereo unspecified)

>  <growth>
16.3% (inactive)

$$$$
>  <compound>
COc1ccc(C2C=C(c3ccc(Cl)c(Cl)c3)N=C3SC(C)=CN32)cc1 (stereo unspecified)

>  <growth>
83% (inactive)

$$$$
>  <compound>
COC(=O)c1cnc2c(c1)Oc1ccccc1-c1ccnn1-2

>  <growth>
107% (inactive)

$$$$

Query block: Fill in reported growth for this entry: CCN(CC)CC(O)Cc1ccc(OC)cc1 (stereo unspecified)
Result block: 106% (inactive)
